system: PPARg:RXRa DBDmut IVT, anti-RXR (DBD mutation: RXRa K156A/R161A, NR concentration 270 nM, RXRa partner concentration 90 nM); experiment: PBM binding z-score (relative to random genomic background probes); higher = stronger binding; sequences stand for … in GC…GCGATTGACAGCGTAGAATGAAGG
Item-by-item account of PBM binding z-score
Format: numeric value only, no unit, no commentary.

Use the examples below as a reference point.
{"columns": ["biosequence", "PBM binding z-score"],
 "data": [
  ["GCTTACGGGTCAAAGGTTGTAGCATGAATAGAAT", 5.13],
  ["AATACAGGGTCACTAGGCCAGATTAGGTACGAAT", 3.7],
  ["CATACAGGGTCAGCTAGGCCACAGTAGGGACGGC", 1.06],
  ["TCTAGTTGGTCGAAGGTCACACACTCGAAATGCG", 1.87],
  ["TCATATAGGTAAATGCTAGGTGAATGTCCGATCT", 3.97],
  ["CCTGCTAGGTCAATGGTCGGCTAAAGCAGCTCGC", 4.15],
  ["CAAACTAGGTCAAGAGGTCAAATTCCGCTTCCCG", 7.98],
  ["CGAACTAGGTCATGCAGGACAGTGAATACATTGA", 8.05]
]}

# PBM binding z-score of CCTTACGGGTCACGAGGTTATAGTACGACGAGCG = 4.32

# PBM binding z-score of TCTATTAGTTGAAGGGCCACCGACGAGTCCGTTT = 2.33
